- procedure details: NOD1 signaling inhibitors, primary screen, cell-based, luminescence, uHTS (AID 1578);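 note: HEK-293T reporter cells stimulated with the NOD1 agonist gamma-tri-DAP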
- recorded conditions: NOD1-driven NF-kB luciferase reporter cells, at 4 µM, active compounds read high
Among all 290,000 compounds or so, about 3,000 (1%) were called active. For the sample, actives were picked, then their nearest neighbours and some compounds at random.
Measured inhibition, listed per entry.
observable: inhibition

compound structure string	result
O=C(c1ccc2ccccc2c1)N1CCCCC1	14.9% (inactive)
Cc1cccc(OCc2nnc(SCc3nc4ccccc4c(=O)[nH]3)o2)c1	-16.2% (inactive)
CCCCC(=O)Nc1ncc([N+](=O)[O-])s1	-10.8% (inactive)
CC(C)CC(=O)Nc1ncc([N+](=O)[O-])s1	3.6% (inactive)
O=C1COc2ccc(C(=O)COC(=O)CCc3ccc(S(=O)(=O)N4CCOCC4)cc3)cc2N1	1.2% (inactive)
CCCCn1c(SCC(=O)N2CCC(C)CC2)nc2ccsc2c1=O	-16.2% (inactive)
Cc1ccc(CC(=O)Nc2ncc([N+](=O)[O-])s2)cc1	-37.4% (inactive)
COc1ccc(CC(=O)OCN2C(=O)c3ccccc3C2=O)cc1	0.1% (inactive)
COc1ccc(CC(=O)Nc2ncc([N+](=O)[O-])s2)cc1OC	-65% (inactive)
Fc1cccc(Cl)c1CNC(c1ccccc1)c1ccccc1	9.2% (inactive)
O=C(COc1ccc(Cl)cc1)Nc1ncc([N+](=O)[O-])s1	73.5% (active)

====

- procedure details: NOD1 signaling inhibitors, primary screen, cell-based, luminescence, uHTS (AID 1578);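 note: HEK-293T reporter cells stimulated with the NOD1 agonist gamma-tri-DAP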
- recorded conditions: NOD1-driven NF-kB luciferase reporter cells, at 4 µM
The campaign covered roughly 290,000 compounds. About 3,000 (1%) were called active. Rule as the data show it: active = inhibition mostly above about 36% (no sharp cut-off); inactive = mostly below about 34%. The sample holds actives, similar compounds and a random draw of the others, so the mix is not that of the screen.
Labels: active, inactive

compound	category
COc1ccc(NC(=O)NNC(=O)c2ccc(-c3ccccc3)cc2)cc1	inactive
C=CCc1cccc(/C=N/NC(=O)C(=O)Nc2ccc(C)cc2)c1O	inactive
CCn1c(=O)c(C(=O)CC#N)c(N)n(Cc2ccccc2)c1=O	inactive
CCCNC(=O)C/C(C)=N/NC(=O)COc1ccc(C)cc1Br	active
O=C(NCCc1csc(-c2ccccc2)n1)c1c(F)cccc1F	inactive
Cc1ccc(C(=O)Cn2c(C)cc(C)c(C#N)c2=O)cc1	inactive
C=CCc1cccc(/C=N/NC(=O)C(C)Nc2ccc(C)cc2)c1O (centres undefined)	inactive
CCN1/C(=C/C(C)=O)Sc2ccc(OC)cc21	active
CC(=O)N(CCc1ccccc1C)Cc1cc2ccc(C)cc2[nH]c1=O	inactive
CCOc1ccc(NC(=O)CN(C)C(=O)CSC(C)C(=O)Nc2cc(C)on2)cc1OCC (centres undefined)	active
Cc1c(Cl)c(C(=O)N2CCCc3ccccc32)nn1C	inactive
COC(=O)Cn1c(=O)c(C(=O)CCl)c(N)n(Cc2ccccc2)c1=O	active
O=C1c2ccccc2C(=O)C12OC2c1ccc(Cl)cc1Cl (centres undefined)	inactive
Oc1ccc(Nc2nc(-c3ccc(O)cc3)cs2)cc1	inactive
NC(N)=NC(=S)Nc1ccc(Cl)cc1	inactive
Cc1ccc(NC(=O)CCOc2ccccc2)cc1	inactive
Cc1ccccc1NC(=O)Cc1nc(COC(=O)c2cc(Cl)ccc2O)cs1	inactive
COc1ccc(CCNC(=O)C/C(C)=N/NC(=O)COc2ccc(C)cc2Br)cc1OC	inactive
CCC(=O)/C=C1/Sc2ccc(OC)cc2N1CC	inactive
CCNc1nc(NCC)n2c(SCC(=O)Nc3ccccc3[N+](=O)[O-])nnc2n1	inactive
c1ccc2c(c1)N1CCCN=C1N2CCN1CCCCC1	inactive
C=CCc1cccc(/C=N/NC(=O)C(C)Nc2cccc(C)c2)c1O (centres undefined)	active
COc1ccc(C(=O)NNC(=O)Nc2ccc(Cl)cc2)cc1	active
N/C(=N\NC(=O)c1sccc1OCc1ccc(Cl)cc1Cl)c1ccccn1	inactive

====

- procedure details: NOD1 signaling inhibitors, primary screen, cell-based, luminescence, uHTS (AID 1578);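 note: HEK-293T reporter cells stimulated with the NOD1 agonist gamma-tri-DAP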
- recorded conditions: NOD1-driven NF-kB luciferase reporter cells, at 4 µM
The whole screen tested about 290,000 compounds, of which about 3,000 (1%) were called active. Rule as the data show it: active = inhibition mostly above about 36% (no sharp cut-off); inactive = mostly below about 34%. For the sample, actives were picked, then their nearest neighbours and some compounds at random.
Labels: active, inactive

compound	category
COc1ccc(C)cc1N(C(=O)c1ccc(C#N)cc1)C1=NC(C)(C)CS1	inactive
CCN(CC)S(=O)(=O)c1cc([N+](=O)[O-])ccc1NNC(=O)Nc1ccccc1	inactive
CCCC(=O)Nc1nc2c(s1)COc1ccccc1-2	inactive
COc1ccc(CC(=O)N2CCN(c3cccc(C)c3C)CC2)cc1	inactive
O=C(NCc1nc(-c2ccc(C(F)(F)F)cc2)no1)Nc1ccc(OC(F)(F)F)cc1	inactive
O=C(NCc1nc(-c2ccc(C(F)(F)F)cc2)no1)Nc1cc(Cl)cc(Cl)c1	active
O=C(Nc1cccc([N+](=O)[O-])c1)C12CC3CC(C1)CC(n1cnc([N+](=O)[O-])n1)(C3)C2	active
Cc1nnc(NC(=O)c2cccc(S(=O)(=O)N3CCc4ccccc43)c2)s1	inactive
CCS(=O)(=O)c1ccc2c(c1)N(S(C)(=O)=O)CC(C(=O)NCc1ccccc1OC)O2 (stereo not drawn)	inactive
Cc1cc(C)nc(Nc2cccc(Cl)c2)n1	inactive
N#C/C(=C(/O)c1ccc2c(c1)OCO2)c1nc2cc(C(F)(F)F)ccc2s1	active
N#C/C(=C\N1CCN(Cc2ccc3c(c2)OCO3)CC1)c1nc2ccccc2s1	inactive
CCOC(=O)c1ccc(NC(=S)NCCc2ccccc2F)cc1	inactive
Cc1ccc(CNS(=O)(=O)c2ccc3c(c2)NC(=O)C(C)S3)cc1 (stereo not drawn)	inactive
N#C/C(=C(/O)COC(=O)c1ccc(C#N)cc1)c1nc2ccccc2s1	inactive
CCOc1ccc(NC(=O)C2CCCN(S(=O)(=O)c3ccc4c(c3)CC(C)N4C(C)=O)C2)cc1 (stereo not drawn)	inactive
NC(=O)Nc1ccc(C(=O)OCC(=O)N(Cc2ccccc2)C2CCS(=O)(=O)C2)cc1 (stereo not drawn)	inactive
CCN(CC)S(=O)(=O)c1cc([N+](=O)[O-])ccc1NNC(=O)Nc1ccc(F)cc1	inactive
CC1OC2(C)OC(=N)C1(C#N)C(C#N)(C#N)C2c1ccccc1 (stereo not drawn)	inactive
CC(C)=C(C#N)c1nc2ccccc2s1	inactive
CCOC(=O)c1cnn(-c2ccccc2)c1-n1cccc1C(=O)C(=O)Nc1ccccc1	inactive
Brc1cc(Br)c2nc3c(cc2c1)CCC3	inactive
Cc1ccc2[nH]cc(C(=O)CN3CCN(c4ccccn4)CC3)c2c1	inactive
O=C(O)c1ccc(-c2nc3scc(-c4ccccc4)c3c(=O)[nH]2)cc1	inactive
N#C/C(=C(/O)c1ccc(-c2cccc([N+](=O)[O-])c2)o1)c1nc2ccccc2s1	active
CC(C)C1OC2(C)OC(=N)C1(C#N)C(C#N)(C#N)C2c1ccccc1 (stereo not drawn)	active
O=C(NNC(=S)Nc1ccc(Cl)cc1)c1ccccc1OC(F)F	inactive
CCOC(=O)c1ccc(NC(=S)NCCc2ccc(F)cc2)cc1	active
COc1ccc(NC(=S)NCCc2c[nH]c3ccccc23)c(OC)c1	inactive
CCN(CC)S(=O)(=O)c1cc([N+](=O)[O-])ccc1NNC(=O)Nc1ccc(Cl)c(Cl)c1	active
CCC(=O)Nc1nc2c(s1)COc1ccccc1-2	inactive
N#C/C(=C(/O)c1ccccc1F)c1nc2cc(C(F)(F)F)ccc2s1	inactive
O=C(NCc1ccco1)c1ccc(Cl)c(S(=O)(=O)Nc2ccccc2)c1	inactive
CCC(CC)c1nnc(NC(=O)c2cccc(S(=O)(=O)N3CCc4ccccc43)c2)s1	inactive
CCC(=O)Nc1nc2nc(C)cc(=O)n2[nH]1	active
O=C(Nc1ccccc1)C12CC3CC(C1)CC(n1cnc([N+](=O)[O-])n1)(C3)C2	inactive
Cc1ccc(C(=O)NCC(=O)N2CCN(S(=O)(=O)c3cccs3)CC2)s1	inactive
CCOC(=O)c1ccc(NC(=S)NCCc2ccccc2)cc1	inactive
COC(=O)C1C2C=CC3(CN(c4cccc(C)c4)C(=O)C13)O2 (stereo not drawn)	inactive
Clc1ncccc1-c1nnn(-c2ccccc2Br)n1	inactive
CC(C)(C)c1ccc(C(=O)OC/C(O)=C(\C#N)c2nc3ccccc3s2)cc1	active
CCCCNC(=O)[C@H](Cc1c[nH]c2ccccc12)NC(=O)c1ccccc1Cl	inactive
CCCCC(=O)Nc1nc2c(s1)COc1ccccc1-2	active

====

Measured inhibition, listed per entry.
- procedure details: NOD1 signaling inhibitors, primary screen, cell-based, luminescence, uHTS (AID 1578);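 note: HEK-293T reporter cells stimulated with the NOD1 agonist gamma-tri-DAP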
- recorded conditions: NOD1-driven NF-kB luciferase reporter cells, at 4 µM, active compounds read high
About 3,000 (1%) of roughly 290,000 compounds were called active. The full list was thinned out, with actives kept by preference.
observable: inhibition (%)

compound	quantitative result
O=C1Nc2cc(Cl)c(Cl)cc2N(O)N1c1ccc(Cl)cc1	11.5
COc1ccc(NC(=O)CC(C(=O)O)N2CCCCC2)cc1 (configuration not stated)	2.5
CC(C)n1cc(CN2CCC(n3nccc3NC(=O)CCCc3ccccc3)CC2)cn1	-24.8
O=C(O)c1ccc(S(=O)(=O)c2ccc3c(c2)C(=O)N(c2ccc(O)cc2)C3=O)cc1	-1.2
COc1ccc(-c2nc(C#N)c(N3CCN(c4cccc(Cl)c4)CC3)o2)cc1OC	5.2
Cc1cc(C)nc(NC(=O)c2ccc(C)o2)n1	-48.4
O=C(c1ccc2c3c(cccc13)CC2)C1CCCN(C(=O)c2ccc[n+]([O-])c2)C1 (configuration not stated)	10.8
Cc1ccc(Cn2nc(C)c(NC(=O)CCCn3nc([N+](=O)[O-])c(Cl)c3C)c2C)cc1	-25.5
O=S(=O)(c1ccc(Cl)s1)N1CCN(c2ncccn2)CC1	-11.8
CC(C)(C)c1cc(C(c2cccnc2)N2CCN(CCO)CC2)cc(C(C)(C)C)c1O (configuration not stated)	67.2
Cc1ccc(NC(=S)NCC(O)c2ccccc2)c(C)c1 (configuration not stated)	-31
COc1cccc(OCC(O)CNC(C)c2ccccc2)c1 (configuration not stated)	-39.9
CC(=O)Nc1ccc(OCc2nnc(-c3ccc(Cl)cc3)o2)cc1	-27.9
O=C(Nc1nncs1)c1cccc(S(=O)(=O)N2CCc3ccccc32)c1	-12.7
CCn1cc([N+](=O)[O-])c(C(=O)N2N=C(c3ccc(Cl)c(Cl)c3)CC2c2ccccc2O)n1 (configuration not stated)	-14.7
S=C(Nc1ccccc1)N1CCOCCOCCN(C(=S)Nc2ccccc2)CCOCCOCC1	-11
S=c1sc2c(Cl)ncnc2n1-c1ccccc1	69.8
CCn1cc([N+](=O)[O-])c(C(=O)N2N=C(c3ccc4ccccc4c3)CC2c2ccccc2O)n1 (configuration not stated)	-40.2
COc1cc(CN2CCCC(N3CCN(c4ccc(F)cc4)CC3)C2)ccc1F (configuration not stated)	61.4
O=C(NS(=O)(=O)Nc1ccc(Br)cn1)c1c[nH]c2ccccc12	31.1
COc1ccccc1-c1nc(C#N)c(N2CCN(c3ccccc3)CC2)o1	-2.9
CC(C)(C)c1cc(CN2CCN(CCO)CC2)cc(C(C)(C)C)c1O	45.2
